Target Desc: α4β1 (Homo sapiens, UniProt P05556+P13612)
Construct: Ramos Cell Adhesion Assay (α4β1 Mediated Adhesion/VCAM-1); endogenous in cells; host or cells: Ramos cells
Sequence (P13612 34-1032): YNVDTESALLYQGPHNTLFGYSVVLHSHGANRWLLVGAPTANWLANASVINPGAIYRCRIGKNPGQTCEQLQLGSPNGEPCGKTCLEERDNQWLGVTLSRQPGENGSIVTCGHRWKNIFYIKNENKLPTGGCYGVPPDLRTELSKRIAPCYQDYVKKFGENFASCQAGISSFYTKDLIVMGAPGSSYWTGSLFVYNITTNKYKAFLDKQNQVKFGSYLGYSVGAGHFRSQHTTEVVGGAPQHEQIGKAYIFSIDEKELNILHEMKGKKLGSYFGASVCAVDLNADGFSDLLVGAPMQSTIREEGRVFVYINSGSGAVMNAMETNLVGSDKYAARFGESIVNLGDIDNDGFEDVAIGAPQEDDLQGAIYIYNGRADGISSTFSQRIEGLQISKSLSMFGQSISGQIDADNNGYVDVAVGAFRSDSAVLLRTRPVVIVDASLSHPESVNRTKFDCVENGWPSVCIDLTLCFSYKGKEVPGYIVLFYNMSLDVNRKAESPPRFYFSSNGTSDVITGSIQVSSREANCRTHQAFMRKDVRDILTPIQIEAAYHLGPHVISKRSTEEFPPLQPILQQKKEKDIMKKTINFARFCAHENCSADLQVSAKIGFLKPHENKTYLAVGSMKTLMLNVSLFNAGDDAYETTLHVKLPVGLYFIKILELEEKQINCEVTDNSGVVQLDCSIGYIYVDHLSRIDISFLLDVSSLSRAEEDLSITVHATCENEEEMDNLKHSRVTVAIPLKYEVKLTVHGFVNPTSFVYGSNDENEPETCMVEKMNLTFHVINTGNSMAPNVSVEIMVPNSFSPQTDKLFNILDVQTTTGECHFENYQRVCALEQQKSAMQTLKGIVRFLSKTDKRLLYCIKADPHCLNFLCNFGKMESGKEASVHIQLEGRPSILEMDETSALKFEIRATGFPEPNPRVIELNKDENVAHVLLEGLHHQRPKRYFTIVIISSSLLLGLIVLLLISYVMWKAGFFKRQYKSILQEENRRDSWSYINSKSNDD
Sequence (P05556 21-798): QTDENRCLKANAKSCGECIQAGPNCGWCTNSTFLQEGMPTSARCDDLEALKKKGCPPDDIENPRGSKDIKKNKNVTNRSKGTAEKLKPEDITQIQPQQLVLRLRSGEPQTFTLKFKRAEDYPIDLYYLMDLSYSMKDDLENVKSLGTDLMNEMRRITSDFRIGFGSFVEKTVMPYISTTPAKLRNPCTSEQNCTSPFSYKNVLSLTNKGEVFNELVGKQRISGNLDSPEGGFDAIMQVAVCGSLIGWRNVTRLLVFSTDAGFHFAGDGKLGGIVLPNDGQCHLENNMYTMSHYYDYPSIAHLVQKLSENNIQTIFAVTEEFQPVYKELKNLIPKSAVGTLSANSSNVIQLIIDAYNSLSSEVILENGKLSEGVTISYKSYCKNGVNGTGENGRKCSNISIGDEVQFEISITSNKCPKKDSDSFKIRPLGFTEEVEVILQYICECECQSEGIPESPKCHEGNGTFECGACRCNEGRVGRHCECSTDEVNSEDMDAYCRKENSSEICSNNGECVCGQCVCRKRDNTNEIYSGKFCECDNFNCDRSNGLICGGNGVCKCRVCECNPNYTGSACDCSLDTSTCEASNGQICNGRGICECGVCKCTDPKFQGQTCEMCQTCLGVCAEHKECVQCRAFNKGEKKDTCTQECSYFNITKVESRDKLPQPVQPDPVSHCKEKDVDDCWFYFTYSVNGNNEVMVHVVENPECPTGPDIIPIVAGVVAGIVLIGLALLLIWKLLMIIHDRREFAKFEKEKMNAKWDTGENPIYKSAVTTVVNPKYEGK
Test Description: Ramos Cell Adhesion Assay (α4β1 Mediated Adhesion/VCAM-1)
Assay type: cell-based
Run Parameters: Ramos cell adhesion to hVCAM-1; read-out: α4β1 IC50
Reported Property: IC50 (nM)

I. COc1cnn(C)c(=O)c1-c1ccc(C[C@H](NC(=O)[C@@H]2C3CCC(CC3)N2S(=O)(=O)c2ccccc2)C(=O)O)cc1 [Cpd 108]
II. O=C(N[C@@H](Cc1ccc(-c2c(OC3CCCC3)cnn(CCO)c2=O)cc1)C(=O)O)c1c(Cl)cccc1Cl [Cpd 43]
Lookup: When their IC50 values are compared, which is larger, I or II ? Field: selected label. Fill in the label of the entry you choose.
Found: II
(II: 437 nM, I: 2.7 nM)
